Target: H12 (Influenza A virus)
Assay: FACS, HA on mammalian cells; 2nd only 9.7
The binders listed here are annotated with their % cells binding to HA.

{"columns": ["binder", "% cells binding to HA (%)"],
 "data": [
  ["FHF11v9 (antibody, V domains shown) VH: QVQLQQSGPGLVKPSQTLSVTCGISGDSVSSYSAAWNWIRQSPSRGLEWLGRTYYRSGWYNDYAVSVKSRITINPDTSKNQFSLQLISVTPEDTAVYYCARVGAMTFGLLTGGMDVWGQGTTVTVSS VL: EIVLTQSPGTQSLSPGERATLSCRASQSLSRSYLAWYQQRPGKPPRLLIYGASSRATGIPDRFSGSGSGTDFSLTISSLEPEDSAMYFCQYYGDSPLFSFGPGTKVDIK", 86],
  ["FHF11v3 (antibody, V domains shown) VH: QVQLQQSGPGLVKPSQTLSVTCGISGDSVSSYSAAWNWIRQSPSRGLEWLGRTYYRSKWYNDYAVSVKSRITINPDTSKNQFSLQLISVTPEDTAVYYCARVGAMTFGLLTGGMDVWGQGTTVTVSS VL: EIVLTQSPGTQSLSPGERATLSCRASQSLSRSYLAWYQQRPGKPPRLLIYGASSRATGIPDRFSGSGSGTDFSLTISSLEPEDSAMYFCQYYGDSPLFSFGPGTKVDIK", 85],
  ["FHF11 (antibody, V domains shown) VH: QVQLQQSGPGLVKPSQTLSVTCGISGDSVSSHSAAWNWIRQSPSRGLEWLGRTYYRSKWYNDYAVSVKSRITINPDTSKNQFSLQLISVTPEDTAVYYCARVGAMTFGLLTGGMDVWGQGTTVTVSS VL: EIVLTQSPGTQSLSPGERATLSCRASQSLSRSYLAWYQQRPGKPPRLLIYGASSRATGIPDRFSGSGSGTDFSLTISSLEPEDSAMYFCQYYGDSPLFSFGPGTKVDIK", 86],
  ["FHF11v6 (antibody, V domains shown) VH: QVQLQQSGPGLVKPSQTLSVTCGISGDSVSSHSAAWNWIRQSPSRGLEWLGRTYYRSGWYNDYAVSVKSRITINPDTSKNQFSLQLISVTPEDTAVYYCARVGAMTFGLLTGGMDVWGQGTTVTVSS VL: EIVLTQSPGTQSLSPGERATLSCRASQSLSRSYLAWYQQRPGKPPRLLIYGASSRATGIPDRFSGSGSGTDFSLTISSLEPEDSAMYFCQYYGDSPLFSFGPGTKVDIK", 87]
]}
